Task for the reader: assign each of the following molecules its reported IC50.
assay: Inhibition of BTK in anti-CD3/CD28-stimulated human CD4-positive T cells assessed as reduction in cell proliferation pretreated for 30 mins followed by anti-CD3/CD28-stimulation and measured after 3 days by [3H]-thymidine incorporation assay
Numbers only, in µM.

molecule="N#CN1CCCC(n2nc(-c3ccc(Oc4ccc(Cl)cc4)cc3)c(C(N)=O)c2N)C1 (single isomer, unassigned)" test_result=8.15

Problem: Please report the measured IC50 for N#CN1CCC[C@@H](n2nc(-c3ccc(Oc4cccc(C(F)(F)F)n4)cc3)c(C(N)=O)c2N)C1
Result: 10.1

---

experiment: Inhibition of BTK in goat anti-human IgM F(ab')2-stimulated human B cells assessed as reduction in cell proliferation pretreated for 30 mins followed by goat anti-human IgM F(ab')2-stimulation and measured after 3 days by [3H]-thymidine incorporation assay
TEST READOUT: IC50 (nM)
Answers are plain numbers, in nM.

Recorded results for 4 molecules are shown here.
molecule="N#CN1CCCC(n2nc(-c3ccc(Oc4ccc(Cl)cc4)cc3)c(C(N)=O)c2N)C1 (single isomer, unassigned)" unit_spec=nM test_result=1.7
molecule=N#CN1CCC[C@@H](n2nc(-c3ccc(Oc4ccc(Cl)cn4)cc3)c(C(N)=O)c2N)C1 unit_spec=nM test_result=1.6
molecule=N#CN1CCC[C@@H](n2nc(-c3ccc(Oc4ccc(F)cc4F)cc3)c(C(N)=O)c2N)C1 unit_spec=nM test_result=2.7
molecule=N#CN1CCC[C@@H](n2nc(-c3ccc(Oc4ncc(Cl)cc4F)cc3)c(C(N)=O)c2N)C1 unit_spec=nM test_result=19

// next item, IC50 requested
Problem: Report measured IC50; entry is N#CN1CCC[C@@H](n2nc(-c3ccc(Oc4cccc(C(F)(F)F)n4)cc3)c(C(N)=O)c2N)C1
Result: 15

All figures here come from BindingDB's records for doi:10.1021/acsmedchemlett.8b00461.
